Consider the following compounds and their measured log10 of EC50 readings.
Test system: parasites (ring stage, in human red blood cell culture)
Experiment: Parasite LDH growth assay (antiparasite potency, Parasite Assay)
Assay type: cell-based, Plasmodium falciparum
Conditions: Plasmodium falciparum, Erythrocyte, 72 h, 0.7% rings, 2% haematocrit, 72 hours at 37° C., LDH readout of parasite growth
Parameter value (number): base-10 log of EC50 in nM.

Form: compound = CC(C)[C@]1(C)CC(=O)N([C@@H]2CC(C)(C)Oc3ccc(C(=O)N[C@@H]4c5ccccc5OC(C)(C)[C@H]4O)cc32)C(=N)N1 [Example 38A] ; log10 of EC50 = 0.45

Form: compound = CCC1(CC)CC(=O)N([C@@H]2CCOc3ccc(C(=O)N[C@@H]4c5cc(F)ccc5C[C@H]4O)cc32)C(=N)N1 ; log10 of EC50 = 0.43

Form: compound = CCC1(CC)CC(=O)N([C@@H]2CCc3ccc(C(=O)N[C@@H]4c5ccccc5C[C@H]4O)cc32)C(=N)N1 ; log10 of EC50 = 1.03

Others:
Form: compound = CCC1(CC)CC(=O)N(C2c3cc(C(=O)N[C@H]4CC(C)(C)Oc5ccccc54)ccc3OCC2O)C(=N)N1 (stereo partly shown) ; log10 of EC50 = 1.34

Form: compound = CCC1(CC)CC(=O)N([C@H]2c3cc(C(=O)N[C@@H]4c5ccccc5OC(C)(C)[C@H]4O)ccc3OC[C@H]2C)C(=N)N1 ; log10 of EC50 = -0.40

Form: compound = CC1(C)CC(=O)N(C2c3cc(C(=O)N[C@@H]4c5ccccc5C[C@@]4(C)O)ccc3OC2(C)C)C(=N)N1 (stereo partly shown) ; log10 of EC50 = 2.35

---

Test system: parasites (ring stage, in human red blood cell culture)
Assay: Parasite LDH growth assay (antiparasite potency, Parasite Assay)
Assay type: cell-based, Plasmodium falciparum
Details: Plasmodium falciparum, Erythrocyte, 72 h, 0.7% rings, 2% haematocrit, 72 hours at 37° C., LDH readout of parasite growth
Consider the following compounds and their measured pEC50 readings.
Scale: pEC50 equals -log10([C]), with [C] in mol/L.

Look over these answered cases.
Form: compound = CCC1(CC)C[C@@H](N2C(=N)NC(C)(C)CC2=O)c2cc(C(=O)N[C@H]3c4cc(F)ccc4OC(C)(C)[C@@H]3O)ccc2O1 [Example 59A] ; pEC50 = 6.68

Form: compound = CCC1(CC)CC(=O)N([C@@H]2CCS(=O)(=O)c3ccc(C(=O)N[C@@H]4c5ccccc5OC(C)(C)[C@H]4O)cc32)C(=N)N1 [Example 71A] ; pEC50 = 8.46

Form: compound = COC1COc2ccc(C(=O)N[C@@H]3c4ccccc4OC[C@@]3(C)O)cc2C1N1C(=N)NC(C)(C)CC1=O (stereo partly drawn) ; pEC50 = 7.15

Form: compound = CCC1(CC)CC(=O)N(C2CCOc3ccc(C(=O)N[C@@H]4c5ccccc5OC(C)(C)[C@H]4O)cc32)C(=N)N1 (stereo partly drawn) ; pEC50 = 9.30

Others:
Form: compound = CC[C@]1(C)CC(=O)N([C@@H]2C[C@@H](C)c3ccc(C(=O)N[C@@H]4c5ccccc5C[C@]4(C)O)cc32)C(=N)N1 ; pEC50 = 8.19

Form: compound = CCC1(CC)CC(=O)N([C@@H]2C[C@@H](COCCOCCOCCNC(C)=O)Oc3ccc(C(=O)N[C@H]4CC(C)(C)Oc5ccccc54)cc32)C(=N)N1 ; pEC50 = 7.27

---

System: parasites (ring stage, in human red blood cell culture)
Assay: Parasite LDH growth assay (antiparasite potency, Parasite Assay)
Type: cell-based, Plasmodium falciparum
Conditions: Plasmodium falciparum, Erythrocyte, 72 h, 0.7% rings, 2% haematocrit, 72 hours at 37° C., LDH readout of parasite growth
From the text: Assessing Antiparasite Potency in a Parasite LDH Growth Assay (Parasite Assay) The parasite stock was maintained at 4% haematocrit in RPMI-Hepes media buffered with sodium bicarbonate and supplemented with 5% heat inactivated human serum and 0.5% albumax. On the day of assay set up, a blood smear of the parasite culture was Giemsa stained and counted. […]
reported-property: EC50 (nM)
Express your answer in nM, writing the number without its unit.

Look over these answered cases.
Form: compound = CCC1(CC)CC(=O)N([C@H]2c3cc(C(=O)N[C@@H]4c5ccccc5C[C@H]4O)ccc3OC[C@H]2C)C(=N)N1 [Example 118] ; EC50 = 0.9

Form: compound = CCC1(CC)CC(=O)N(C2c3cc(C(=O)N[C@@H]4c5ccccc5C[C@]4(C)O)ccc3OCC2OC)C(=N)N1 (some centres unmarked) [Example 213] ; EC50 = 9

Form: compound = CCC1(CC)CC(=O)N([C@H]2c3cc(C(=O)N[C@@H]4c5ccccc5C[C@H]4O)ccc3CC2OC)C(=N)N1 (some centres unmarked) [Example 140A] ; EC50 = 1.4

Others:
Form: compound = CCC1(CC)CC(=O)N([C@@H]2C[C@@H](C)Oc3ccc(C(=O)N[C@@H]4c5ccccc5OC(C)(C)[C@H]4O)cc32)C(=N)N1 [Example 246] ; EC50 = 2

Form: compound = CC[C@]1(C)CC(=O)N([C@@H]2C[C@@H](C)Oc3ccc(C(=O)N[C@@H]4c5ccccc5C[C@H]4O)cc32)C(=N)N1 [Example 102] ; EC50 = 14

Form: compound = CCC1(CC)CC(=O)N([C@@H]2CCOc3ccc(C(=O)N[C@@H](C)c4ccccc4OC)cc32)C(=N)N1 [Example 111] ; EC50 = 90

Form: compound = CC1(C)CC(=O)N([C@@H]2CC(C)(C)Oc3ccc(C(=O)N[C@@H]4c5cc(F)ccc5OC(C)(C)[C@H]4O)cc32)C(=N)N1 [Example 58B] ; EC50 = 3.8

Form: compound = CC1(C)CC(=O)N([C@@H]2CCc3ccc(C(=O)N[C@@H]4c5ccccc5OC(C)(C)[C@H]4O)cc32)C(=N)N1 [Example 98] ; EC50 = 1.5

Form: compound = COC1COc2ccc(C(=O)N[C@@H]3c4ccccc4OC(C)(C)[C@H]3O)cc2C1N1C(=N)NC(C)(C)CC1=O (some centres unmarked) [Example 217] ; EC50 = 4.9

Form: compound = CCC1(CC)CC(=O)N([C@H]2C[C@H](COCCOCCOCCNC(=O)OC(C)(C)C)Oc3ccc(C(=O)N[C@H]4CC(C)(C)Oc5ccccc54)cc32)C(=N)N1 [Example 313] ; EC50 = 260

Form: compound = CCC1(CC)CC(=O)N([C@@H]2CCOc3c(Cl)cc(C(=O)N[C@H]4c5ccccc5OC(C)(C)[C@@H]4O)cc32)C(=N)N1 [Example 29B] ; EC50 = 39.7

Form: compound = CC[C@]1(C)CC(=O)N([C@@H]2CCc3ccc(C(=O)N[C@@H]4c5ccccc5OC[C@@]4(C)O)cc32)C(=N)N1 [Example 100] ; EC50 = 5.3

Form: compound = CCC1(CC)CC(=O)N([C@@H]2CCOc3ccc(C(=O)NC4CC(=O)Oc5ccccc54)cc32)C(=N)N1 (some centres unmarked) [Example 63A] ; EC50 = 220

Form: compound = CC[C@]1(C)CC(=O)N([C@H]2c3cc(C(=O)N[C@@H]4c5ccccc5OC[C@@]4(C)O)ccc3OC[C@@H]2COC)C(=N)N1 [Example 252] ; EC50 = 2.1

Form: compound = CCC1(CC)CC(=O)N([C@@H]2CCOc3ccc(C(=O)N[C@H]4CC(C)(C)Oc5ccc(Br)cc54)cc32)C(=N)N1 [Example 14A] ; EC50 = 1

Form: compound = CC1(C)CC(=O)N(C2CCS(=O)(=O)c3ccc(C(=O)N[C@@H]4c5ccccc5C[C@@]4(C)O)cc32)C(=N)N1 (some centres unmarked) [Example 188] ; EC50 = 203

---

Tested on: parasites (ring stage, in human red blood cell culture)
Assay: Parasite LDH growth assay (antiparasite potency, Parasite Assay)
Assay type: cell-based, Plasmodium falciparum
Settings: Plasmodium falciparum, Erythrocyte, 72 h, 0.7% rings, 2% haematocrit, 72 hours at 37° C., LDH readout of parasite growth
Source text: Assessing Antiparasite Potency in a Parasite LDH Growth Assay (Parasite Assay) The parasite stock was maintained at 4% haematocrit in RPMI-Hepes media buffered with sodium bicarbonate and supplemented with 5% heat inactivated human serum and 0.5% albumax. On the day of assay set up, a blood smear of the parasite culture was Giemsa stained and counted. […]
pEC50: −log10 of the molar value.
# binarize pEC50: threshold 8 inclusive, high side MET, low side NOT MET

*Q* Is it the case that CCC1(CC)CC(=O)N([C@H]2C[C@@H](OC)c3ccc(C(=O)N[C@@H]4c5ccccc5OC(C)(C)[C@H]4O)cc32)C(=N)N1 has pEC50 reaching or exceeding 8?
*A* NOT MET

*Q* Is it the case that CCC1(CC)CC(=O)N([C@@H]2CCOc3ccc(C(=O)NC(CCc4ccccc4)c4ccccc4)cc32)C(=N)N1 (some centres unmarked) has pEC50 reaching or exceeding 8?
*A* MET

*Q* Is it the case that CC1(C)CC(=O)N(C2CCS(=O)(=O)c3ccc(C(=O)N[C@@H]4c5ccccc5OC[C@@]4(C)O)cc32)C(=N)N1 (some centres unmarked) has pEC50 reaching or exceeding 8?
*A* NOT MET

*Q* Is it the case that CCC1(CC)CC(=O)N([C@@H]2C[C@@H](CCCCCCNC(=O)OC(C)(C)C)Oc3ccc(C(=O)N[C@H]4CC(C)(C)Oc5ccccc54)cc32)C(=N)N1 has pEC50 reaching or exceeding 8?
*A* MET

Okay, next one:
*Q* Is it the case that CC1(C)CC(=O)N([C@@H]2CCc3ccc(C(=O)N[C@@H]4c5cc(F)ccc5OC(C)(C)[C@H]4O)cc32)C(=N)N1 has pEC50 reaching or exceeding 8?
*A* MET
